# target desc: T1, human CEACAM5 (human, UniProt P06731 35-685)
# T1 construct: whole, on cells; Target on MKN-45 (DSMZ ACC409) and LS180 (ATCC CL-187) cells; also called carcinoembryonic antigen-related cell adhesion molecule 5; CD66e
# T1 sequence (looked up): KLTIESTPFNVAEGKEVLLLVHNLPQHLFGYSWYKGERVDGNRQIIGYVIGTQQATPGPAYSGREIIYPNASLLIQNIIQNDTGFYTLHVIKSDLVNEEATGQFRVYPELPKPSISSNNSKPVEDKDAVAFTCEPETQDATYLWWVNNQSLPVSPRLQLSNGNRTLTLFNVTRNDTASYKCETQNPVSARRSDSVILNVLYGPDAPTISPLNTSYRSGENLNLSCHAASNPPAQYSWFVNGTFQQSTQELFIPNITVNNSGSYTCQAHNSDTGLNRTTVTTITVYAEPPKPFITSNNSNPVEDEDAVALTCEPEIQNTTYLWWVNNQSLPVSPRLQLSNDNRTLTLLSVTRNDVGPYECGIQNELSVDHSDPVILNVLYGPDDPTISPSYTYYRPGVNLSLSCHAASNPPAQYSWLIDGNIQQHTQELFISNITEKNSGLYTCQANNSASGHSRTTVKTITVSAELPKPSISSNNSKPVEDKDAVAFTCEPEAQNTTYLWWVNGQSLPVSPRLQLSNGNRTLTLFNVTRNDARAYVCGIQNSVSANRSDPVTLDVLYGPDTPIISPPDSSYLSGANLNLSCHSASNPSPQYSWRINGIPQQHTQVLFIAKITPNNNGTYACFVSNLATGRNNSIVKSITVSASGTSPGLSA
# assay explanation: FACS on MKN-45 cells expressing human CEACAM5

binder	EC50 (µg/mL)
P1AI5021 (antibody, human IgG1, name in Kabat numbering, V domains shown) VH: EVQLVESGGGLVQPGGSLRLSCAASGFNIKDTYMHWVRQAPGKGLEWVGRIDPANGNSKYADSVKGRFTISADTSKNTAYLQMNSLRAEDTAVYYCAPFGYYVSDYAMAYWGQGTTVTVSS VL: EIVLTQSPATLSLSPGERATLSCRAGESVDIFGVGFLHWYQQKPGQAPRLLIYRGSNRATGIPARFSGSGSGTDFTLTISSLEPEDFAVYYCGQTNEPPYTFGQGTKLEIK	1.62
P1AI5027 (antibody, human IgG1, name in Kabat numbering, V domains shown) VH: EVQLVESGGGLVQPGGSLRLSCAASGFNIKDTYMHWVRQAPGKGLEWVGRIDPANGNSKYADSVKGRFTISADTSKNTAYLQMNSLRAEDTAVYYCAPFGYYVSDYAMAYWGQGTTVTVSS VL: EIVLTQSPATLSLSPGERATLSCRAGESVDIFGVGFLHWYQQKPGQAPRLLIYRGSNRATGIPARFSGSGSGTDFTLTISSLEPEDFAVYYCGQTQEDPYTFGQGTKLEIK	25.1
P1AI5015 (antibody, human IgG1, V domains shown) VH: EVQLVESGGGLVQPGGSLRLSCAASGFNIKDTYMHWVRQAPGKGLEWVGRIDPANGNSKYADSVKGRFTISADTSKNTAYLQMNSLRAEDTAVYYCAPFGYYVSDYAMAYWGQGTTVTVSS VL: EIVLTQSPATLSLSPGERATLSCRAGESVDIFGVGFLHWYQQKPGQAPRLLIYRGSNRATGIPARFSGSGSGTDFTLTISSLEPEDFAVYYCQQTYEYPYTFGQGTKLEIK	0.483
